system: MET (UniProt P08581)
Sequence (P08581 whole entry): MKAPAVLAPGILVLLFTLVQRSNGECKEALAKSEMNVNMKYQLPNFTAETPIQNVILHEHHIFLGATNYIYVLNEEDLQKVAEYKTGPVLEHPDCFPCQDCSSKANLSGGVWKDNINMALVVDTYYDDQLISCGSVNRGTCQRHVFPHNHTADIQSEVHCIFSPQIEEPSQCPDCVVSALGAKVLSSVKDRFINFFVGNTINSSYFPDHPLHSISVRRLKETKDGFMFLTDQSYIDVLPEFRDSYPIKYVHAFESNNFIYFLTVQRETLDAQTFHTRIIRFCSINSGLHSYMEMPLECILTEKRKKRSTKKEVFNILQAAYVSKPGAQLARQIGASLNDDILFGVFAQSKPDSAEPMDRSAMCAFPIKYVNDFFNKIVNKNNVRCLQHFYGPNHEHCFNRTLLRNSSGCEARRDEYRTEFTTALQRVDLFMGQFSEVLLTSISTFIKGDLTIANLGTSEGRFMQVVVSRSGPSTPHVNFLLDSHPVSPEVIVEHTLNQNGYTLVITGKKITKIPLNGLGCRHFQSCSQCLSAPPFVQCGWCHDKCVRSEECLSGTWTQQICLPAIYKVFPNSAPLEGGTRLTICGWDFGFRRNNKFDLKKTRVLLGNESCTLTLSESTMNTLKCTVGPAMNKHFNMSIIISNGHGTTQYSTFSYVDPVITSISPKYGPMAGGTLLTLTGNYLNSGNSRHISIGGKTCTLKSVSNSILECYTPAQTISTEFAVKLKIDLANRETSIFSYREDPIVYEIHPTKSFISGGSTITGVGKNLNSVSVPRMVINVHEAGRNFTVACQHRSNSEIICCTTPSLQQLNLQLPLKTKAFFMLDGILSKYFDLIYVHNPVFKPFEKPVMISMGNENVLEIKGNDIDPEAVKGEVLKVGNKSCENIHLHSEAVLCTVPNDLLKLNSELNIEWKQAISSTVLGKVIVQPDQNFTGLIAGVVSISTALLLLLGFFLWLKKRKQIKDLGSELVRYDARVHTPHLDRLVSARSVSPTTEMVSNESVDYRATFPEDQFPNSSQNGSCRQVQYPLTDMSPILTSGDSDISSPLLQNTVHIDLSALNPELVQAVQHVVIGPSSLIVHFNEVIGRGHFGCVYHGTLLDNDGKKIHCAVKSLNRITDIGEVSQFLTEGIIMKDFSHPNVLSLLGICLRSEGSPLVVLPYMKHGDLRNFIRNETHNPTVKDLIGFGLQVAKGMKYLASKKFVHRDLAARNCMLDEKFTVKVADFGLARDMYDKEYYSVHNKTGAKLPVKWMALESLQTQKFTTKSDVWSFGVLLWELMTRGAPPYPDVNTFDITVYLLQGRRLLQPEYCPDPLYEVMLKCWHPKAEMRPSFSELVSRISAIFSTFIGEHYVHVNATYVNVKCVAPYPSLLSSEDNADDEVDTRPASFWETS
procedure_text: pIC50, kinobeads binding competition
test_parameters: cell material: Lysate mix
What pIC50 was measured for each of the following?

compound: C#CCNC(=O)c1cc(Nc2cc(C)[nH]n2)nc(N2CCN(Cc3ccc(S(=O)(=O)F)cc3)CC2)n1
recorded_endpoint: pIC50
experimental_result: < 4.52
//
compound: Cc1cc(Nc2cc(C(=O)NCCNC(=O)OC3CC/C=C/CCC3)nc(N3CCN(Cc4ccc(S(=O)(=O)F)cc4)CC3)n2)n[nH]1 (stereo not given)
recorded_endpoint: pIC50
experimental_result: < 4.52
//
compound: CCNC(=O)c1cc(Nc2cc(C3CC3)[nH]n2)nc(N2CCN(Cc3ccc(S(=O)(=O)F)cc3)CC2)n1
recorded_endpoint: pIC50
experimental_result: 4.92
//
compound: CCNC(=O)c1cc(Nc2cc(C)[nH]n2)nc(N2CCN(Cc3ccc(S(=O)(=O)F)cc3)CC2)n1
recorded_endpoint: pIC50
experimental_result: < 4.52

Prompt: Reported pIC50 for O=C(NCCNC(=O)c1cc(Nc2cc(C3CC3)[nH]n2)nc(N2CCN(Cc3ccc(S(=O)(=O)F)cc3)CC2)n1)OC1CC/C=C/CCC1 (stereo not given) : what is it?
Completion: < 4.52

* * *

system: UniProt Q15208
Sequence (Q15208 whole entry, looked up): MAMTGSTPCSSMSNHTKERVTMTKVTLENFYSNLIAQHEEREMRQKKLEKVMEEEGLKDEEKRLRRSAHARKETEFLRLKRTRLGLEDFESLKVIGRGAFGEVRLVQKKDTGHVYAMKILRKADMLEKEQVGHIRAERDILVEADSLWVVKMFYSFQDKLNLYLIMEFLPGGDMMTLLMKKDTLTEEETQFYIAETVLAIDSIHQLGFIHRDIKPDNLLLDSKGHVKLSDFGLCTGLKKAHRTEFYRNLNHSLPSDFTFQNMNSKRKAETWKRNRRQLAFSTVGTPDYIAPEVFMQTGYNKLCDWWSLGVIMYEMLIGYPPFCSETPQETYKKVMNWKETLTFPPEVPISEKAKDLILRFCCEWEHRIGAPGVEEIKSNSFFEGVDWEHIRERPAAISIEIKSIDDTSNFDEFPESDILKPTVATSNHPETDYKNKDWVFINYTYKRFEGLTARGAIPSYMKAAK
procedure_text: pIC50, kinobeads binding competition
test_parameters: cell material: Lysate mix
Exercise: for every item that follows, state its recorded pIC50.
Numbers only.

Worked examples follow.
molecule: O=C(NCCNC(=O)c1cc(Nc2cc(C3CC3)[nH]n2)nc(N2CCN(Cc3ccc(S(=O)(=O)F)cc3)CC2)n1)OC1CC/C=C/CCC1 (stereo unspecified)
system: UniProt Q15208
experimental_result: 5.11

molecule: C#CCNC(=O)c1cc(Nc2cc(C3CC3)[nH]n2)nc(N2CCN(Cc3ccc(S(=O)(=O)F)cc3)CC2)n1
system: UniProt Q15208
experimental_result: 6.2

molecule: CCNC(=O)c1cc(Nc2cc(C3CC3)[nH]n2)nc(N2CCN(Cc3ccc(S(=O)(=O)F)cc3)CC2)n1
system: UniProt Q15208
experimental_result: 5.83

molecule: CCNC(=O)c1cc(Nc2cc(C)[nH]n2)nc(N2CCN(Cc3ccc(S(=O)(=O)F)cc3)CC2)n1
system: UniProt Q15208
experimental_result: 4.8

Kindly review the next molecule as well.
Prompt: Item under review: C#CCNC(=O)c1cc(Nc2cc(C)[nH]n2)nc(N2CCN(Cc3ccc(S(=O)(=O)F)cc3)CC2)n1 . Reported pIC50?
Completion: 5

* * *

system: UniProt P45984
Sequence (P45984 whole entry, looked up): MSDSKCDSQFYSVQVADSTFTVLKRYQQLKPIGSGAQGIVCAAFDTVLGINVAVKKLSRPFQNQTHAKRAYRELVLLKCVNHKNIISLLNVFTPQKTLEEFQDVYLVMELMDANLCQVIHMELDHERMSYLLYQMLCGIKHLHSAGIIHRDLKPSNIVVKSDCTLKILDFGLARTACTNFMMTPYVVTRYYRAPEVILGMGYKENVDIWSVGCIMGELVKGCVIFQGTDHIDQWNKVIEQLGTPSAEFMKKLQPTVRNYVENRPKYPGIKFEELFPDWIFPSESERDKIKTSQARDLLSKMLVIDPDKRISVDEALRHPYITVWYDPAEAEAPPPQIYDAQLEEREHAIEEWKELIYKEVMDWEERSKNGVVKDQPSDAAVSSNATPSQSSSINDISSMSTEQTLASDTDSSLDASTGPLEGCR
procedure_text: pIC50, kinobeads binding competition
test_parameters: cell material: Lysate mix
recorded_endpoint: pIC50
Numbers only.

compound_structure_string: C#CCNC(=O)c1cc(Nc2cc(C3CC3)[nH]n2)nc(N2CCN(Cc3ccc(S(=O)(=O)F)cc3)CC2)n1
pIC50: 5.72
//
compound_structure_string: C#CCNC(=O)c1cc(Nc2cc(C)[nH]n2)nc(N2CCN(Cc3ccc(S(=O)(=O)F)cc3)CC2)n1
pIC50: 5.34
//
compound_structure_string: CCNC(=O)c1cc(Nc2cc(C)[nH]n2)nc(N2CCN(Cc3ccc(S(=O)(=O)F)cc3)CC2)n1
pIC50: 5.2

Okay, now this compound:
Prompt: Request - read-out pIC50 | tested on UniProt P45984 | compound CCNC(=O)c1cc(Nc2cc(C3CC3)[nH]n2)nc(N2CCN(Cc3ccc(S(=O)(=O)F)cc3)CC2)n1
Completion: 5.62
